Please provide measured pIC50 for the entries that follow.
assayed_system: Bifunctional 3'-5' exonuclease/ATP-dependent helicase WRN [480-1251] (UniProt Q14191)
Construct: 480-1251
run_description: Biochemical Activity Assays
Reminder that pIC50 means the negative base-10 logarithm of the concentration expressed in mol/L.

Let me know recorded pIC50 for `CCc1c(N2CCN(C(=O)c3ncnc(C)c3O)CC2)c(=O)n2nc(-c3ccc4oc(C)nc4c3)nc2n1CC(=O)Nc1ccc(C(F)(F)F)cc1Cl` , thanks.
7.41

For the compound `CCc1c(N2CCN(C(=O)c3ncnc(C)c3O)CC2)c(=O)n2nc(-c3ccc4c(c3)ncn4C)nc2n1CC(=O)Nc1ccc(C(F)(F)F)cc1Cl` , report pIC50.
7.62

Query pIC50 for `CCc1c(N2CCN(C(=O)c3ncnc(C)c3O)CC2)c(=O)n2c(CO)c(-c3ccc4c(c3)COC4)nc2n1CC(=O)Nc1ccc(C(F)(F)F)cc1Cl`
4.53

###

Could you please report measured IC50 for the items listed next?
assayed_system: Bifunctional 3'-5' exonuclease/ATP-dependent helicase WRN (Homo sapiens)
Sequence (Q14191 whole entry): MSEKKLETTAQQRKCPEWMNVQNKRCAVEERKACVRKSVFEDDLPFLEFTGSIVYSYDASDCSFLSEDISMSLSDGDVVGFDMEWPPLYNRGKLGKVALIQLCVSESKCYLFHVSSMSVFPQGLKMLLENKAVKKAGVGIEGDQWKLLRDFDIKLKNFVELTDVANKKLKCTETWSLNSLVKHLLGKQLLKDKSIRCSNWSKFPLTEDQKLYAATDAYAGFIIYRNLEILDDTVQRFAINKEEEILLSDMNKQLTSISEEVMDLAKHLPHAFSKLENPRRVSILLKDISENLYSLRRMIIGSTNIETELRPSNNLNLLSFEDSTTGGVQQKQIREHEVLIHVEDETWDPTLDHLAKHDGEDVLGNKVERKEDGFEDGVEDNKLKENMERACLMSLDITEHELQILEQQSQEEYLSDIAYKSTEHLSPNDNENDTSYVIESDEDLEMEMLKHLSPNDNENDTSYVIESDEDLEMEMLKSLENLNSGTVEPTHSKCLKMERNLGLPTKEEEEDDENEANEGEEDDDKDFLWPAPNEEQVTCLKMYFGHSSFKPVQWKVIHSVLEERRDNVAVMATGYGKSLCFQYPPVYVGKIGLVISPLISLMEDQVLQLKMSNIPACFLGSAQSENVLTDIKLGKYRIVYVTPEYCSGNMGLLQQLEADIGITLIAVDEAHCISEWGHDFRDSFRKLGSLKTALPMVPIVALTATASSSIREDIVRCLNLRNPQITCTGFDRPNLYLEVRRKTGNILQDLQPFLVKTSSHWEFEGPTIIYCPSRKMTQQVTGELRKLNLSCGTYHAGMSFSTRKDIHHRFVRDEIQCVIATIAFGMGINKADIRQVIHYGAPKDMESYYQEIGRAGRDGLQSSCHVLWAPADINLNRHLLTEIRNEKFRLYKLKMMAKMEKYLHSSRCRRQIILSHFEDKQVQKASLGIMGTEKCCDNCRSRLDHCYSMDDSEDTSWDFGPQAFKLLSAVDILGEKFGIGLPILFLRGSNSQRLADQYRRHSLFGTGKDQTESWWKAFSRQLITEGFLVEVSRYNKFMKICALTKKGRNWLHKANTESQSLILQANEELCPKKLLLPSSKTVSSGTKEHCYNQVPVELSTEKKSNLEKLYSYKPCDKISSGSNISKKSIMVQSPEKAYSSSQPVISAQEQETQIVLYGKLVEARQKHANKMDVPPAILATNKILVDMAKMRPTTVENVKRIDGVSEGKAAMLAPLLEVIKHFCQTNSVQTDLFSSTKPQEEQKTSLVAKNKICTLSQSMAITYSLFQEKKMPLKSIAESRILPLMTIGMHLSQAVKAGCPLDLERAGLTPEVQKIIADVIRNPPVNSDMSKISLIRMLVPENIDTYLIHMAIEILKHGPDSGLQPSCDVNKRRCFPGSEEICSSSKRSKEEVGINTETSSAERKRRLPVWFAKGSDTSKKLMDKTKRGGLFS
run_description: ADP-Glo Kinase Assay
The reply should be a number in nM, with the unit left off.

Output reported IC50 of the molecule `CCc1c(N2CCN(C(=O)c3ncnc(C)c3O)CC2)c(=O)n2nc(-c3ccc4c(c3)OC(F)(F)O4)nc2n1CC(=O)Nc1ccc(C(F)(F)F)cc1Cl` on Bifunctional 3'-5' exonuclease/ATP-dependent helicase WRN (Homo sapiens).
77

Look up and report IC50, with Bifunctional 3'-5' exonuclease/ATP-dependent helicase WRN (Homo sapiens) as system, for `CCc1c(N2CCN(C(=O)c3ncnc(C)c3O)CC2)c(=O)n2nc(N(C)C)nc2n1CC(=O)Nc1ccc(SC(F)(F)F)cc1Cl`
42

Please report IC50 with Bifunctional 3'-5' exonuclease/ATP-dependent helicase WRN (Homo sapiens) for item `CCc1c(N2CCN(C(=O)c3ncnc(C)c3O)CC2)c(=O)n2nc(-c3cc(OC)c(OC)c(OC)c3)nc2n1CC(=O)Nc1ccc(C(F)(F)F)cc1Cl` .
29700

Provide measured IC50 on Bifunctional 3'-5' exonuclease/ATP-dependent helicase WRN (Homo sapiens) for `CCc1c(N2CCN(C(=O)c3ncnc(C)c3O)CC2)c(=O)n2nc(-c3ccc4c(c3)COC43CCOCC3)nc2n1CC(=O)Nc1ccc(C(F)(F)F)cc1Cl` please.
53

// fetch IC50 for `CCc1c(N2CCN(C(=O)c3ncnc(C)c3O)CC2)c(=O)n2nc(-c3cc4c(cc3F)[C@@H](OC)CC4)nc2n1CC(=O)Nc1ccc(C(F)(F)F)cc1Cl` ; system: Bifunctional 3'-5' exonuclease/ATP-dependent helicase WRN (Homo sapiens)
24

###

assayed_system: Bifunctional 3'-5' exonuclease/ATP-dependent helicase WRN (Homo sapiens)
run_description: ADP-Glo Kinase Assay
Kindly state pIC50 for each of the entries shown.
Kindly note that pIC50 refers to -log10 of the concentration in mol/L and answer with the value alone.

Give the value of pIC50 reported for the following: `CCc1c(N2CCN(C(=O)c3ncnc(C)c3O)CC2)c(=O)n2nc(-c3cccc4c3COCC4)nc2n1CC(=O)Nc1c(Cl)cc(C(F)(F)F)c2c1CC2`
7.08

Input `CCc1c(N2CCN(C(=O)c3ccnc(C)c3O)CC2)c(=O)n2nc(-c3ccc4c(c3)COC4(C)C)nc2n1CC(=O)Nc1ccc(C(F)(F)F)cc1Cl` , output reported pIC50.
7.40

Give the reported pIC50 for this compound. `CCc1c(N2CCN(C(=O)c3ncnc(C)c3O)CC2)c(=O)n2nc(-c3ccc(S(=O)(=O)N4CCC4)cc3)nc2n1CC(=O)Nc1ccc(C(F)(F)F)cc1Cl`
7.72

Name the recorded pIC50 of the item `CCc1c(N2CCN(C(=O)c3ncnc(C)c3O)CC2)c(=O)n2nc(-c3cccc4c3COC4)nc2n1CC(=O)Nc1c(Cl)cc(C(F)(F)F)c2c1CC2` in your answer.
7.05

Give recorded pIC50. `CCc1c(N2CCN(C(=O)c3ncnc(C)c3O)CC2)c(=O)n2nc(C3=CCOCC3)nc2n1CC(=O)NC12CCC(C(F)(F)F)(CC1)OC2`
4.53

Determine its reported pIC50: `CCc1c(N2CCN(C(=O)c3ncnc(C)c3O)CC2)c(=O)n2nc(-c3ccccc3C(=O)NC3CC3)nc2n1CC(=O)Nc1ccc(C(F)(F)F)cc1Cl`
7.21

Fill in reported pIC50 for this entry: `CCc1c(N2CCN(C(=O)c3ncnc(C)c3O)CC2)c(=O)n2nc(-c3ccc4c(c3)[C@H](C)OC4)nc2n1CC(=O)Nc1ccc(C(F)(F)F)cc1Cl`
7.47

Using known records, supply pIC50 for `CCc1c(N2CCN(C(=O)c3ncnc(C)c3O)CC2)c(=O)n2nc(-c3ccc4c(c3F)COC4(C)C)nc2n1CC(=O)Nc1ccc(C(F)(F)F)cc1Cl`
7.43

Return the recorded pIC50 value; entry: `CCc1c(N2CCN(C(=O)c3ncnc(C)c3O)CC2)c(=O)n2nc(-c3cc(C)c4c(c3)CCO4)nc2n1CC(=O)Nc1ccc(C(F)(F)F)cc1Cl`
7.24

Given `CCc1c(N2CCN(C(=O)c3ncnc(C)c3O)CC2)c(=O)n2nc(-c3ccc4ccnn4c3)nc2n1CC(=O)Nc1ccc(C(F)(F)F)cc1Cl` , respond with its pIC50.
7.62

Fill in reported pIC50 for this entry: `CCc1c(N2CCN(C(=O)c3ncnc(C)c3O)CC2)c(=O)n2nc(-c3nc4c(s3)CCC4)nc2n1CC(=O)Nc1ccc(C(F)(F)F)cc1Cl`
7.42

###

assayed_system: Bifunctional 3'-5' exonuclease/ATP-dependent helicase WRN (Homo sapiens)
run_description: ADP-Glo Kinase Assay
pIC50: −log10 of the molar value.
Would you please tag the item T when its pIC50 is 7 or above, and F when it is below?

Hi team, for CCc1c(N2CCN(C(=O)c3nocc3O)CC2)c(=O)n2nc(-c3ccc4c(c3)COC4)nc2n1CC(=O)Nc1ccc(C(F)(F)F)cc1Cl [WO2025049746, Example 446] , is the recorded pIC50 at or above 7?
T

Given the entry `CCc1c(N2CCN(C(=O)c3ncnc(C)c3O)CC2)c(=O)n2nc(-c3ccc4c(c3)CCN(C)C4)nc2n1CC(=O)Nc1ccc(C(F)(F)F)cc1Cl` , answer whether its pIC50 meets or surpasses 7.
T

Hi, just wondering whether `CCc1c(N2CCN(C(=O)c3ncnc(C)c3O)CC2)c(=O)n2nc(-c3coc4ccccc34)nc2n1CC(=O)Nc1ccc(C(F)(F)F)cc1Cl` shows pIC50 of 7 or higher.
T

hey, is pIC50 for this one >= 7? `CCc1c(N2CCN(C(=O)c3ncnc(C)c3O)CC2)c(=O)n2nc(-c3ccc4c(c3)OCCN4)nc2n1CC(=O)Nc1ccc(C(F)(F)F)cc1Cl`
T

Kindly determine if pIC50 recorded for `CCc1c(N2CCN(C(=O)c3ncnc(C)c3O)CC2)c(=O)n2nc(-c3ccc4nc(N)oc4c3)nc2n1CC(=O)Nc1ccc(C(F)(F)F)cc1Cl` is above or exactly 7.
T

Is the recorded value of pIC50 equal to or greater than 7 for this molecule? `CCc1c(N2CCN(C(=O)c3ncnc(C)c3O)CC2)c(=O)n2nc(-c3ccc4nn(C(C)C)cc4c3)nc2n1CC(=O)Nc1ccc(C(F)(F)F)cc1Cl`
T

Would you say `CCc1c(N2CCN(C(=O)c3ncnc(C)c3O)CC2)c(=O)n2nc(-c3ccc4[nH]c(=O)ccc4c3)nc2n1CC(=O)Nc1ccc(C(F)(F)F)cc1Cl` shows pIC50 at minimum 7?
T

For this molecule, is measured pIC50 7 or higher? `CCc1c(N2CCN(C(=O)c3ncnc(C)c3O)CC2)c(=O)n2nc(-c3ccc4c(c3)CCOC4)nc2n1CC(=O)Nc1ccc(C(F)(F)F)cc1Cl`
T

Decide: is the reported value of pIC50 for `CCc1c(N2CCN(C(=O)c3ncnc(C)c3O)CC2)c(=O)n2nc(-c3ccc(OCC(=O)O)cc3)nc2n1CC(=O)Nc1ccc(C(F)(F)F)cc1Cl` equal to or greater than 7?
T

Evaluate `CCc1c(N2CCN(C(=O)c3ncnc(C)c3O)CC2)c(=O)n2nc(C3=CCOCC3)nc2n1CC(=O)Nc1ccc(SC(F)(F)F)cc1` : pIC50 at minimum 7?
F

Item `CCc1c(N2CCN(C(=O)c3ncnc(C)c3O)CC2)c(=O)n2nc(-c3ccc4c(c3)CN(C)CC4)nc2n1CC(=O)Nc1ccc(C(F)(F)F)cc1Cl` with pIC50 of 7 or above?
T

Form field: pIC50 at least 7? Entry: CCc1c(N2CCC(N(C)C(=O)c3ncnc(C)c3O)C2)c(=O)n2nc(C3=CCOCC3)nc2n1CC(=O)Nc1ccc(C(F)(F)F)cc1Cl (stereo unspecified)
F

API: above_or_equal(metric=pIC50, cutoff=7) for item `CCc1c(N2CC[C@@H](C)N(C(=O)c3ncnc(C)c3O)CC2)c(=O)n2nc(-c3ccc4c(c3)COC4(C)C)nc2n1CC(=O)Nc1ccc(C(F)(F)F)cc1Cl`
T

Check if pIC50 >= 7 (inclusive). Item: `CCc1c(N2CCN(C(=O)c3ncnc(C)c3O)CC2)c(=O)n2nc(-c3cccc4sc(C)nc34)nc2n1CC(=O)Nc1ccc(C(F)(F)F)cc1Cl`
T

Reported pIC50 at or above 7? `CCc1c(N2CCN(C(=O)c3nc4n(c(=O)c3O)CCOC4)CC2)c(=O)n2nc(-c3ccc4c(c3)COC4(C)C)nc2n1CC(=O)Nc1ccc(C(F)(F)F)cc1Cl`
T

Can `CCc1c(N2CCN(C(=O)c3ncnc(C)c3O)CC2)c(=O)n2nc(-c3cncc4c3CCOC4)nc2n1CC(=O)Nc1ccc(C(F)(F)F)cc1Cl` be said to have pIC50 at or above 7?
F

Dear colleague, could you confirm whether `CCc1c(N2CCN(C(=O)c3ncnc(C)c3O)CC2)c(=O)n2nc(-c3ccc4c(c3)CS(=O)(=O)N4C)nc2n1CC(=O)Nc1ccc(C(F)(F)F)cc1Cl` has pIC50 at or above 7?
T

Is pIC50 for CCc1c(N2CC3CCN(C(=O)c4ncnc(C)c4O)CC32)c(=O)n2nc(C3=CCOCC3)nc2n1CC(=O)Nc1ccc(C(F)(F)F)cc1Cl (stereo unspecified) at or above 7?
F

API: above_or_equal(metric=pIC50, cutoff=7) for item `CCc1c(N2CCN(C(=O)c3nc4n(c(=O)c3O)CCOC4)CC2)c(=O)n2nc(-c3ccc4c(c3)CCOC4)nc2n1CC(=O)Nc1ccc(C(F)(F)F)cc1Cl`
T

From: BindingDB's records for patent WO2025049746
